- Experimental System: human full-length VWF (human, UniProt P04275 764-2813)
- Assay Method Text: SPR, Biacore T200, antibody captured on Protein A, full-length VWF as analyte, single-cycle kinetics
Measure Name: kon (M⁻¹ s⁻¹)
Response body: numeric value in M⁻¹ s⁻¹, unit text excluded.

Binder	kon (M⁻¹ s⁻¹)
1-A2_H0_VL-par (antibody, human IgG1, kappa, V domains shown, also called 1-A2_H0 (hIgG1)) VH: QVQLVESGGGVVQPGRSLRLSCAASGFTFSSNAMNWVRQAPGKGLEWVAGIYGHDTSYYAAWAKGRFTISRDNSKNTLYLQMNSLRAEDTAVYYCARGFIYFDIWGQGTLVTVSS VL: AIEMTQTPPSLSASVGETVRIRCLASEDIYSGISWYQQKPGKPPTLLIYGASNLESGVPPRFSGSGSGTDYTLTIGGVQAEDAATYYCLGGHSHSTTDLTFGAGTKVEIKT	35100

Continue with the next binder.
Request: # input binder: 1-A2_VH-par_L0 (antibody, human IgG1, kappa, V domains shown, also called 1-A2_L0 (hIgG1K)) VH: SQSVEESGGRLVPPGTPLTLTCTVSGIDLTSNAMNWVRQAPGKGLEWIGGIYGHDTSYYAAWAKGRFTISRTSTTVDLKMTRPTTDDTATYFCARGFIYFDIWGTGTLVTISS VL: DIQMTQSPSSLSASVGDRVTITCLASEDIYSGISWYQQKPGKAPKLLIYGASNLESGVPSRFSGSGSGTDFTLTISSLQPEDFATYYCLGGHSHSTTDLTFGGGTKVEIKT ; wanted: its kon
Response: 59600
